Study System: Pro-neuregulin-1, membrane-bound isoform (Homo sapiens) (UniProt Q02297)
Sequence (Q02297 whole entry, looked up, canonical isoform): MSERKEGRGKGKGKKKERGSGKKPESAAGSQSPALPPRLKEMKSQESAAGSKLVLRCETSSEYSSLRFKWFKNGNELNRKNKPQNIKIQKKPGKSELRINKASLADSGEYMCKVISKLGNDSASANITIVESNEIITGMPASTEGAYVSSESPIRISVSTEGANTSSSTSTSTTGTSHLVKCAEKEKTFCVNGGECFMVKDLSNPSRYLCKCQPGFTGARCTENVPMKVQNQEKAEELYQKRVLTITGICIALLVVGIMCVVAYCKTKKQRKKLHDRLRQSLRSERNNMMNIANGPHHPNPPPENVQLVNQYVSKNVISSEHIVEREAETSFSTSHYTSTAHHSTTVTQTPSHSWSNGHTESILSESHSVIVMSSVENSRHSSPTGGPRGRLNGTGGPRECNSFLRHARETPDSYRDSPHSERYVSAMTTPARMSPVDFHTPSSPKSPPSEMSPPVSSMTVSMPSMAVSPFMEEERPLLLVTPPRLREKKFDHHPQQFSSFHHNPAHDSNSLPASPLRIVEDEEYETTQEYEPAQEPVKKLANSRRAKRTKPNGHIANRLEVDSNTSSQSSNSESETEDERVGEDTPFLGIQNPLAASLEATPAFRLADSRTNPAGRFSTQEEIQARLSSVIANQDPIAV
Assay Remarks: NRG1 binders on small-molecule microarrays, primary screen, psychiatric disease protein project, biochemical, small-molecule microarray, fluorescence 635/667 (AID 1075);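 further: score combines 667 nm spot fluorescence with signal to noise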
Test Settings: NRG1 binding, 635 nm fluorescence, higher = more signal
Test Readout: composite z-score
Answers are plain numbers.

Examples with their reported composite z-score follow.
C=CCOC(=O)[C@H]1[C@@H]2C(=O)O[C@@H](c3ccccc3)[C@@H](c3ccccc3)N2[C@@H](c2ccc(OCCOC(=O)[C@H]3C[C@H]4C(=O)N5CCC[C@H]5C(=O)N4[C@H]3c3ccc(O)cc3)cc2)[C@]12C(=O)Nc1ccccc12
1.33
CC(=O)n1cc(C(O)C2C=CC3C(=O)N(C)C(=O)C3N2Nc2ccccc2)c2ccccc21 (stereo not given)
1.78
COCCOC(=O)N1C(=O)[C@@]2(c3cc(C#Cc4ccc(OC)cc4)ccc31)[C@H](C(N)=O)[C@H]1C(=O)O[C@H](c3ccccc3)[C@H](c3ccccc3)N1[C@@H]2c1ccccc1OCCO
1.64
C#CCN(CC1=CCCCC1)[C@H](c1ccccc1Br)[C@@H](O)Cc1ccccc1
0.251

With those in mind, consider the next compound.
Task: # input compound: CN(C)C(=O)[C@]1(Cc2ccccc2N=[N+]=[N-])N=C(c2ccc(OCCCO)cc2)O[C@@H]1c1ccccc1 ; wanted: its composite z-score
Output: 1.78

// data source = PubChem BioAssay
